# testName: protein stability index of a GFP-peptide fusion (yeast GPS) (PSI 1-4); higher = more stable; sorted into four equal gates, so the index is relative within each strain
# recordedConditions: pdr5∆
Lab note: anything with protein stability index at or over 3 counts as 1 (yes); the rest go in 0 (no).

[
  {
    "seqString": "LIKNGKKVTAFVPNDGC [RPS23A]",
    "label": "1 (yes)"
  },
  {
    "seqString": "SSQPLEPLSDTEEPDLA [DSN1]",
    "label": "0 (no)"
  },
  {
    "seqString": "LADDLITKMLASDESLL [RPN2]",
    "label": "0 (no)"
  },
  {
    "seqString": "ALLIAGHDADDGYQLFH [PUP2]",
    "label": "0 (no)"
  },
  {
    "seqString": "KDIFRYMQRTVEEAHDF [RPB2]",
    "label": "0 (no)"
  },
  {
    "seqString": "ANLLQINVDNDPFFAQS [YML103C/NUP188]",
    "label": "1 (yes)"
  },
  {
    "seqString": "SLRRQVKKLEIQQHARY [RPL43A]",
    "label": "0 (no)"
  },
  {
    "seqString": "ATKDNELNVKHVKQCQE [SMC2]",
    "label": "1 (yes)"
  },
  {
    "seqString": "KDPDVPLVLLQQIPLLC [POP3]",
    "label": "0 (no)"
  },
  {
    "seqString": "TTQIDLFRIFSMSEEFK [BRR2]",
    "label": "1 (yes)"
  },
  {
    "seqString": "GIFLHGKIPTLKISLIQ [PRP8]",
    "label": "0 (no)"
  },
  {
    "seqString": "RQQQENSSKIITLDLSN [SMC1]",
    "label": "1 (yes)"
  },
  {
    "seqString": "SLKGLQSKLKDVVEYLD [RPN8]",
    "label": "0 (no)"
  },
  {
    "seqString": "KDRYINGDKKVDIYSLP [YMR129W/POM152]",
    "label": "0 (no)"
  },
  {
    "seqString": "LLHNHLKSIESLKLENS [SMC2]",
    "label": "0 (no)"
  },
  {
    "seqString": "NVVNYLSINKNFINQED [RPC17]",
    "label": "0 (no)"
  },
  {
    "seqString": "TEKEEDAELMADEEEEI [ISW2]",
    "label": "1 (yes)"
  },
  {
    "seqString": "ANNYSSNIGNNSINNNN [YDL088C/ASM4]",
    "label": "1 (yes)"
  },
  {
    "seqString": "VQGAAPWDTSLEVGRRF [MCD1]",
    "label": "1 (yes)"
  }
]

---

# testName: protein stability index of a GFP-peptide fusion (yeast GPS) (PSI 1-4); higher = more stable; sorted into four equal gates, so the index is relative within each strain
# recordedConditions: san1∆
Catalogue of protein stability index values
measureName: protein stability index

[
  {
    "seqString": "KSVEKTMIKKTTLVTRR [SMC3]",
    "measureName": "protein stability index",
    "valueMeasured": 2.91
  },
  {
    "seqString": "DQSNVQYYLSVLNQQLP [BRR2]",
    "measureName": "protein stability index",
    "valueMeasured": 3.02
  },
  {
    "seqString": "GPAAAKPMAFSNTTTHV [MTR3]",
    "measureName": "protein stability index",
    "valueMeasured": 3.39
  },
  {
    "seqString": "DVLKENNDADKGRSYAY [RIP1]",
    "measureName": "protein stability index",
    "valueMeasured": 3.25
  },
  {
    "seqString": "WSSEFAKWAPTLRTISF [SNF2]",
    "measureName": "protein stability index",
    "valueMeasured": 2.78
  },
  {
    "seqString": "QANPTEESISKFPDMGS [RPB5]",
    "measureName": "protein stability index",
    "valueMeasured": 3.04
  },
  {
    "seqString": "VPTIGVVNSNFAKEHNA [YJR042W/NUP85]",
    "measureName": "protein stability index",
    "valueMeasured": 2.59
  },
  {
    "seqString": "LWNQWLKLNTSLPSKLT [SRP68]",
    "measureName": "protein stability index",
    "valueMeasured": 1.36
  },
  {
    "seqString": "WSEISNELPDIEALYDD [RPN2]",
    "measureName": "protein stability index",
    "valueMeasured": 3.29
  },
  {
    "seqString": "KSMASAFGVSVAFLDND [RPN7]",
    "measureName": "protein stability index",
    "valueMeasured": 3.01
  },
  {
    "seqString": "LQIGDVVERHLEDGDVV [RPO31]",
    "measureName": "protein stability index",
    "valueMeasured": 3.49
  },
  {
    "seqString": "YIKYNILLTSISRERDL [SRP68]",
    "measureName": "protein stability index",
    "valueMeasured": 1.83
  },
  {
    "seqString": "ILTPESQLKKTKAQQKT [RPL7B]",
    "measureName": "protein stability index",
    "valueMeasured": 2.91
  },
  {
    "seqString": "YDSDSDSSVEDSTDNEN [LIN1]",
    "measureName": "protein stability index",
    "valueMeasured": 2.91
  },
  {
    "seqString": "AADTSIVEQDKSMELFY [YJL039C/NUP192]",
    "measureName": "protein stability index",
    "valueMeasured": 2.63
  },
  {
    "seqString": "KKRSKVRKETYSSYIYK [HTB2]",
    "measureName": "protein stability index",
    "valueMeasured": 3.14
  },
  {
    "seqString": "HTEDTVNESRNSDDIID [SRB5]",
    "measureName": "protein stability index",
    "valueMeasured": 2.43
  },
  {
    "seqString": "YLGTKVELPYGAHGYSG [PRE1]",
    "measureName": "protein stability index",
    "valueMeasured": 2.5
  },
  {
    "seqString": "FYDYIKERSIVVGRTTR [REC8]",
    "measureName": "protein stability index",
    "valueMeasured": 1.22
  },
  {
    "seqString": "ASAGSKEGASTNWDDHA [YMR153W/NUP53]",
    "measureName": "protein stability index",
    "valueMeasured": 3.27
  },
  {
    "seqString": "MDHEEARRKHVSGKILG [RPS22A]",
    "measureName": "protein stability index",
    "valueMeasured": 2.87
  },
  {
    "seqString": "TGPFKVNGVPLRRVNAR [RPL6B]",
    "measureName": "protein stability index",
    "valueMeasured": 2.56
  },
  {
    "seqString": "FLIIVPKSTLDNWRREF [ISW2]",
    "measureName": "protein stability index",
    "valueMeasured": 1.94
  },
  {
    "seqString": "AVSVANGFMHAGTTDNS [RPN2]",
    "measureName": "protein stability index",
    "valueMeasured": 1.17
  },
  {
    "seqString": "VFENYVKKTGENEISSL [CDC53]",
    "measureName": "protein stability index",
    "valueMeasured": 2.9
  },
  {
    "seqString": "IDIQTQDLNQRFQDPYV [RRI1]",
    "measureName": "protein stability index",
    "valueMeasured": 2.28
  },
  {
    "seqString": "TKIIMATNRPDTLDPAL [RPT4]",
    "measureName": "protein stability index",
    "valueMeasured": 2.9
  },
  {
    "seqString": "MEKLDAKLNHLKKLEKF [SWI3]",
    "measureName": "protein stability index",
    "valueMeasured": 3.02
  }
]
